# Tested on: Yap1 mRNA
# assayProcedure: Antisense inhibition of human Yap1 in SNU-449 cells by modified oligonucleotides, single dose (Example 5, RTS36584)
# Assay type: cell-based
# experimentalSetup: Table 46; Yap1 mRNA as percent of untreated control, SNU-449 cells, single dose
Strand notation (5' to 3'): a small letter for the sugar, then the base; units joined by * are phosphorothioate-linked, units joined directly phosphodiester-linked; [ ] holds rarer units or linkages, { } end groups; capitals alone tell only the bases. e = 2'-O-(2-methoxyethyl) (MOE); k = constrained ethyl (cEt); [5mC] = 5-methylcytosine; d = 2'-deoxy (DNA)
resultType: YAP1 (% UT)
The figure you give is taken to be in % UT; do not add the unit.

Examples with answers:
> print(dat)
                                  substance  systemundertest  endpointresult
1  1198831 (k[5mC]*kA*d[5mC]*dT*dT*dT*dT*dA*d[5mC]*dA*dT*kT*eA*kG*eG*kA; antisense) [Compound 1198831]        Yap1 mRNA              12
2  1198866 (kT*kA*dA*dT*dA*dT*dT*dG*d[5mC]*dA*dA*kT*e[5mC]*kT*eG*kT; antisense) [Compound 1198866]        Yap1 mRNA              60

For the next question, use this substance.
Reported YAP1 (% UT) for 1198870 (kT*kA*dT*dG*dT*dA*dA*dT*dA*dT*dT*kG*e[5mC]*kA*eA*kT; antisense) [Compound 1198870] : what is it?
86

* * *

# Tested on: Yap1 mRNA
# assayProcedure: Antisense inhibition of human Yap1 in A-431 cells by cEt gapmers, single dose (Example 4, RTS4814)
# Format: cell-based
# experimentalSetup: Table 16; A-431 cells, 5,000 cells per well, free uptake, 2,000 nM, approximately 48 hours; RTS4814; normalized to RIBOGREEN; Yap1 mRNA relative to untreated control cells
# Method: Modified oligonucleotides were designed to target a Yap1 nucleic acid and were tested for their effect on Yap1 mRNA level in vitro. The modified oligonucleotides were tested in a series of experiments that had similar culture conditions. […] After a treatment period of approximately 48 hours, RNA was isolated from the cells and Yap1 mRNA levels were measured by quantitative real-time RTPCR. […] Yap1 mRNA levels were normalized to total RNA content, as measured by RIBOGREEN®. […]
Strand notation (5' to 3'): a small letter for the sugar, then the base; units joined by * are phosphorothioate-linked, units joined directly phosphodiester-linked; [ ] holds rarer units or linkages, { } end groups; capitals alone tell only the bases. k = constrained ethyl (cEt); [5mC] = 5-methylcytosine; d = 2'-deoxy (DNA)
resultType: YAP1 (% UTC)
The figure you give is taken to be in % UTC; do not add the unit.

Examples with answers:
> print(dat)
                                  substance    resulttype   unit  endpointresult
1  1074242 (antisense kA*kG*kA*dA*dG*dA*dT*dG*dT*d[5mC]*dT*dT*dT*kG*k[5mC]*k[5mC]) [Compound 1074242]  YAP1 (% UTC)  % UTC              56
2  1074722 (antisense kA*kG*kG*dA*dA*dG*dA*dT*d[5mC]*dT*d[5mC]*d[5mC]*dA*kT*kA*kT) [Compound 1074722]  YAP1 (% UTC)  % UTC              57

For the next question, use this substance.
Reported YAP1 (% UTC) for 1076546 (antisense k[5mC]*k[5mC]*k[5mC]*d[5mC]*dA*dA*d[5mC]*d[5mC]*dT*dG*dA*dG*dG*kA*kG*k[5mC]) [Compound 1076546] : what is it?
94
